Collected DC50 values appear next to each entry.
target: HiBiT-BRM (Homo sapiens, UniProt P51531)
Construct: expressed in transfected cells
Sequence (P51531 whole entry): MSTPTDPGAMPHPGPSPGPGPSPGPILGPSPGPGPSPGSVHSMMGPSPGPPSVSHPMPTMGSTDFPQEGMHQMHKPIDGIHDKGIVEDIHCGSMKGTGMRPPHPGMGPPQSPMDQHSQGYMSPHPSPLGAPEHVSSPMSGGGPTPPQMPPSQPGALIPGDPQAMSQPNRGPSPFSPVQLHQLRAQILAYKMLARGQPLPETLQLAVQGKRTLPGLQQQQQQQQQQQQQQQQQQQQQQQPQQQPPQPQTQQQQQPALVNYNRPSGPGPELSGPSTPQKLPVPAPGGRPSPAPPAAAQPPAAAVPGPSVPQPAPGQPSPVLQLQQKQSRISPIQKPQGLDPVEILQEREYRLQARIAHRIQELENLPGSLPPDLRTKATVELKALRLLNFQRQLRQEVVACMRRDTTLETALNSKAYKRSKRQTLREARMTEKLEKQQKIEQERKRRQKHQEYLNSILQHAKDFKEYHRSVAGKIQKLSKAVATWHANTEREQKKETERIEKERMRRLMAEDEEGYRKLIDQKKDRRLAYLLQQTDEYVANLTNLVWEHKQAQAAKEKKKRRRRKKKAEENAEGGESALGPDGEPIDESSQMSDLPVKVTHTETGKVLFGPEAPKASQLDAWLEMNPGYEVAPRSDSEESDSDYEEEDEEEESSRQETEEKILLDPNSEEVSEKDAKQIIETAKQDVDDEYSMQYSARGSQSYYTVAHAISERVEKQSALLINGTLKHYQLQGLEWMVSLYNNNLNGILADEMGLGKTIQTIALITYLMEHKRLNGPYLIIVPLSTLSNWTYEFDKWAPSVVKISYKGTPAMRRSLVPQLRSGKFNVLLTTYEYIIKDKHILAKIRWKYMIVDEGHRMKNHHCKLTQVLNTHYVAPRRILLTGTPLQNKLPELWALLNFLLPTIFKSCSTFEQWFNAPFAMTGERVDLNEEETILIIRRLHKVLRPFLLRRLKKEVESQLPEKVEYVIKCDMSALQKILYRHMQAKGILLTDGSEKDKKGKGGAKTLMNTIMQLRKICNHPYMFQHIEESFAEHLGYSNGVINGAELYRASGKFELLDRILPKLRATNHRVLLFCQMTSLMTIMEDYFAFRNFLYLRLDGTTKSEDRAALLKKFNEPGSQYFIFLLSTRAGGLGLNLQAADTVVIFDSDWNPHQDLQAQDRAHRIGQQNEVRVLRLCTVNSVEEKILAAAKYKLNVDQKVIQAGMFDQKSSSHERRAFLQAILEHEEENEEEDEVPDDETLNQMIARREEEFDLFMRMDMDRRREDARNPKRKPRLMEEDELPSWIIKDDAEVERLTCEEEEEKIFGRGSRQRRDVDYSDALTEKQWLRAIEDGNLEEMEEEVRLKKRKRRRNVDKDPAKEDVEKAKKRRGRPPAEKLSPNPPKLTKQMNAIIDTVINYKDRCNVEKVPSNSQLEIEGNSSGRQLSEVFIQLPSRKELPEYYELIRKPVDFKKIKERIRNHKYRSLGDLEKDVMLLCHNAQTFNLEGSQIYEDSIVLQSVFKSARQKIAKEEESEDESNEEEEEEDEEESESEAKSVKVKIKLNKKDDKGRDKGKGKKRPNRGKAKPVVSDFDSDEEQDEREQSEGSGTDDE
experimental_protocol: HiBiT-BRM cell-based degradation assay (Nano-Glo HiBiT Lytic Detection)
measurement_setup: HeLa cells expressing HiBiT-BRM, 24 h; read-out: BRM HiBit Degradation IC50

molecule	target	DC50
Nc1nnc(-c2ccccc2O)cc1OCCc1ccc(C(=O)NCCCCC(=O)NCc2ccc(S(=O)(=O)Nc3cccc4c(Cl)c[nH]c34)cc2)cc1 [Compound 15]	HiBiT-BRM (Homo sapiens, UniProt P51531)	> 1000 nM
CN(CCCCCOc1ccc2c(c1)C(=O)N(C1CCC(=O)NC1=O)C2=O)Cc1ccc(CCOc2cc(-c3ccccc3O)nnc2N)cc1 (stereo not drawn) [Compound 148]	HiBiT-BRM (Homo sapiens, UniProt P51531)	> 1000 nM
Cc1ncsc1-c1ccc(CNC(=O)[C@@H]2C[C@@H](O)CN2C(=O)[C@@H](NC(=O)CCN2C[C@H]3CC[C@@H](C2)N3C(=O)c2ccc(CCOc3cc(-c4ccccc4O)nnc3N)cc2)C(C)(C)C)cc1 [Compound 226]	HiBiT-BRM (Homo sapiens, UniProt P51531)	> 1000 nM

* * *

target: HiBit-BRG1 (Homo sapiens)
Construct: expressed in transfected cells
Sequence (P51532 whole entry): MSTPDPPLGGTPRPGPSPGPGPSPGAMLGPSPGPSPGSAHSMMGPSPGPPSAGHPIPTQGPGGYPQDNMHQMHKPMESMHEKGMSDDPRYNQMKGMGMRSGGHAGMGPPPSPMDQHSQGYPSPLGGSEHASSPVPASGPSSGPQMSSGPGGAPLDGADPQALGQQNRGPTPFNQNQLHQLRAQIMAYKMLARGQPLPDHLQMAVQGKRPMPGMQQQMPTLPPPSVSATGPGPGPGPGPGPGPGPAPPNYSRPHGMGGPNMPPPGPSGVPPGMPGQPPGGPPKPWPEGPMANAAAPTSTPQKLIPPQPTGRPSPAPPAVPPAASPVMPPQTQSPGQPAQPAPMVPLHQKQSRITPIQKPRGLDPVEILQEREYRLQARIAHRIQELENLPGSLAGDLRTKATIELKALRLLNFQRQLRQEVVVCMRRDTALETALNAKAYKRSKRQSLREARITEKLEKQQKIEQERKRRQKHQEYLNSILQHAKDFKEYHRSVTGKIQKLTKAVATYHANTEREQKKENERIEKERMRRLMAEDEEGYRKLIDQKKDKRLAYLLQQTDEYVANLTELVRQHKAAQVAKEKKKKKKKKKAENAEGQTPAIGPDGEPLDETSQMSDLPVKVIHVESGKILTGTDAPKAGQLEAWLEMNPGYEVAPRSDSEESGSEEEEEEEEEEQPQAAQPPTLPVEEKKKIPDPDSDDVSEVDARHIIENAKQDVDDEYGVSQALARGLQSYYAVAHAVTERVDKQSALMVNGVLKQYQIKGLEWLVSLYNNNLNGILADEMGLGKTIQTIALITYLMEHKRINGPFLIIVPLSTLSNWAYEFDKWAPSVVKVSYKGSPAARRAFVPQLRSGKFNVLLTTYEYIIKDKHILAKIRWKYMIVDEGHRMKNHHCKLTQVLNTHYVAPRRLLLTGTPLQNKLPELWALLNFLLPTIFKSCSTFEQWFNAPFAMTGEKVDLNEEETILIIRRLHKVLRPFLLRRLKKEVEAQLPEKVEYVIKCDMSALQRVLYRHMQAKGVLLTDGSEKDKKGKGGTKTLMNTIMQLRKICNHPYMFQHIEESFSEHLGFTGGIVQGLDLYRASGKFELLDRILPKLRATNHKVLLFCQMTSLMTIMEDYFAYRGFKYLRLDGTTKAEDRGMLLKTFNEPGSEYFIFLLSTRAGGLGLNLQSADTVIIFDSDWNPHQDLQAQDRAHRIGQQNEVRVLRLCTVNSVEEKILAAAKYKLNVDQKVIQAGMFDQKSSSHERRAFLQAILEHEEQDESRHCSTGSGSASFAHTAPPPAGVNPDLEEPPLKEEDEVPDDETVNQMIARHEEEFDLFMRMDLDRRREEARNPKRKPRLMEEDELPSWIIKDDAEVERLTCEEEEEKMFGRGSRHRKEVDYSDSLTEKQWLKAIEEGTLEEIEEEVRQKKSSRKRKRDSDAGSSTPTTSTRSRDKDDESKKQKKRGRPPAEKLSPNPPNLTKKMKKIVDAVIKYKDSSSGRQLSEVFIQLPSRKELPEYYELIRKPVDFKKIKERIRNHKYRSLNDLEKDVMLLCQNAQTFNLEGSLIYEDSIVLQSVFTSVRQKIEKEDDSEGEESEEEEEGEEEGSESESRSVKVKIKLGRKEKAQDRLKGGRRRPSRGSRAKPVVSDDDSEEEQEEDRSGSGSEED
experimental_protocol: HiBit-BRG1 cell-based degradation assay (Nano-Glo HiBiT Lytic Detection)
measurement_setup: HeLa cells expressing HiBit-BRG1 and LgBit, 24 h; read-out: BRG1 HiBit Degradation Maximum (%)
Structures can show the parent of a compound that is named as a salt.
Collected Dmax values appear next to each entry.

compound	Dmax
Cc1ncsc1-c1ccc([C@H](C)NC(=O)[C@@H]2C[C@@H](O)CN2C(=O)[C@@H](NC(=O)CCN2C[C@H]3CN(CCC(=O)NCc4ccc(CCOc5cc(-c6ccccc6O)nnc5N)cc4)C[C@H]3C2)C(C)(C)C)cc1	< 50%
CN(CCCCCOc1cccc2c1C(=O)N(C1CCC(=O)NC1=O)C2=O)Cc1ccc(CCOc2cc(-c3ccccc3O)nnc2N)cc1 (stereo not drawn)	< 50%
Nc1nnc(-c2ccccc2O)cc1OCCc1ccc(CNCCCNc2cccc3c2C(=O)N(C2CCC(=O)NC2=O)C3=O)cc1 (stereo not drawn) [Compound 108, formic acid salt]	> 50%

* * *

target: HiBiT-BRM (Homo sapiens)
Construct: expressed in transfected cells
experimental_protocol: HiBiT-BRM cell-based degradation assay (Nano-Glo HiBiT Lytic Detection)
measurement_setup: HeLa cells expressing HiBiT-BRM, 24 h; read-out: BRM HiBit Degradation IC50
Structures can show the parent of a compound that is named as a salt.
value_kind: DC50

molecule	observed_result
Cc1ncsc1-c1ccc([C@H](C)NC(=O)[C@@H]2C[C@@H](O)CN2C(=O)[C@@H](NC(=O)CCCCCCCCCCCCCCNCc2ccc(CCOc3cc(-c4ccccc4O)nnc3N)cc2)C(C)(C)C)cc1	> 0.01 µM
Nc1nnc(-c2ccccc2O)cc1N1CCN(CC(=O)NCCCCS(=O)(=O)CCCNc2cccc3c2C(=O)N(C2CCC(=O)NC2=O)C3=O)CC1 (centres unmarked)	> 1 µM
Cc1ncsc1-c1ccc([C@H](C)NC(=O)[C@@H]2C[C@@H](O)CN2C(=O)[C@@H](c2cc(OCCN3CC(C4CCN(C(=O)c5ccc(CCOc6cc(-c7ccccc7O)nnc6N)cc5)CC4)C3)no2)C(C)C)cc1	> 0.01 µM
Cc1ncsc1-c1ccc(CNC(=O)[C@@H]2C[C@@H](O)CN2C(=O)[C@@H](NC(=O)CCN2CCN(CCOc3cc(N4[C@@H]5CC[C@H]4CN(c4cc(-c6ccccc6O)nnc4N)C5)ccn3)CC2)C(C)(C)C)cc1	> 0.1 µM
Cc1ncsc1-c1ccc(CNC(=O)[C@@H]2C[C@@H](O)CN2C(=O)[C@@H](NC(=O)CCN2CCC(OC3CN(C(=O)c4ccc(CCOc5cc(-c6ccccc6O)nnc5N)cc4)C3)CC2)C(C)(C)C)cc1	> 1 µM
Nc1nnc(-c2ccccc2O)cc1OCCc1ccc(C(=O)NCCCCCCCCCCC(=O)NCc2ccc(S(=O)(=O)Nc3cccc4c(Cl)c[nH]c34)cc2)cc1	> 1 µM
Cc1ncsc1-c1ccc(CNC(=O)[C@@H]2C[C@@H](O)CN2C(=O)[C@@H](NC(=O)CCCN2CCN(CCOc3cc(N4[C@@H]5CC[C@H]4CN(c4cc(-c6ccccc6O)nnc4N)C5)ccn3)CC2)C(C)(C)C)cc1	> 0.1 µM
Cc1ncsc1-c1ccc([C@H](C)NC(=O)[C@@H]2C[C@@H](O)CN2C(=O)[C@@H](c2cc(OCCN3C[C@@H]4[C@H](C3)[C@H]4C(=O)NCc3ccc(CCOc4cc(-c5ccccc5O)nnc4N)cc3)no2)C(C)C)cc1	> 0.01 µM
Cc1ncsc1-c1ccc(CNC(=O)[C@H]2C[C@H](O)CN2C(=O)[C@H](NC(=O)COCCOCCNC(=O)c2ccc(CCOc3cc(-c4ccccc4O)nnc3N)cc2)C(C)(C)C)cc1 (stereo in doubt)	> 1 µM
CN(CCCCCOc1cccc2c1C(=O)N(C1CCC(=O)NC1=O)C2=O)Cc1ccc(CCN(C)c2cc(-c3ccccc3O)nnc2N)cc1 (centres unmarked) [Compound 145, formate]	> 1 µM
Cc1ncsc1-c1ccc([C@H](C)NC(=O)[C@@H]2C[C@@H](O)CN2C(=O)[C@@H](c2cc(OCCN3C[C@H]4CC[C@@H](C3)N4C(=O)c3ccc(CCOc4cc(-c5ccccc5O)nnc4N)cc3)no2)C(C)C)cc1	< 0.01 µM
Nc1nnc(-c2ccccc2O)cc1N1CCN(CC(=O)NCCS(=O)(=O)CCNc2cccc3c2C(=O)N(C2CCC(=O)NC2=O)C3=O)CC1 (centres unmarked)	> 1 µM
Cc1ncsc1-c1ccc([C@H](C)NC(=O)[C@@H]2C[C@@H](O)CN2C(=O)[C@@H](NC(=O)CCCCCCCCCCCCCC(=O)NCc2ccc(CCN(C)c3cc(-c4ccccc4O)nnc3N)cc2)C(C)(C)C)cc1	> 0.01 µM
Nc1nnc(-c2ccccc2O)cc1N1CCN(CC(=O)NCCCCCCCCNc2cccc3c2C(=O)N(C2CCC(=O)NC2=O)C3=O)CC1 (centres unmarked)	> 1 µM
Nc1nnc(-c2ccccc2O)cc1N1CCN(CCNC(=O)CCCCCCCCCNc2cccc3c2C(=O)N(C2CCC(=O)NC2=O)C3=O)CC1 (centres unmarked)	> 1 µM
Nc1nnc(-c2ccccc2O)cc1OCCc1ccc(CNC(=O)CCCCCCCCCCNc2cccc3c2C(=O)N(C2CCC(=O)NC2=O)C3=O)cc1 (centres unmarked)	> 1 µM
Nc1nnc(-c2ccccc2O)cc1OCCc1ccc(CNC(=O)CCOCCOCCNc2ccc3c(c2)C(=O)N(C2CCC(=O)NC2=O)C3=O)cc1 (centres unmarked)	> 1 µM
Nc1nnc(-c2ccccc2O)cc1N1CCN(CCNC(=O)CCCCCCCCCCNc2ccc3c(c2)C(=O)N(C2CCC(=O)NC2=O)C3=O)CC1 (centres unmarked)	> 1 µM
Nc1nnc(-c2ccccc2O)cc1OCCc1ccc(CNC(=O)CCCCNc2ccc3c(c2)CN(C2CCC(=O)NC2=O)C3=O)cc1 (centres unmarked)	> 1 µM
Cc1ncsc1-c1ccc([C@H](C)NC(=O)[C@@H]2C[C@@H](O)CN2C(=O)[C@@H](c2cc(OCCNCCCCCCCCC(=O)NCc3ccc(CCOc4cc(-c5ccccc5O)nnc4N)cc3)no2)C(C)C)cc1	> 0.1 µM
